Listed below: GI50 values for each entry.
System: HL-60(TB) leukemia
Experiment: NCI tumour cell line growth inhibition, 48 h

>>> df
                                 smiles_str       result
0  N.N.NCCCCCCCCCN.O=C([O-])CC(=O)[O-].O=C([O-])CC(=O)[O-].[Pt+4].[Pt+4]     13400 nM
1  COc1ccc(-c2csc(NC(=O)CSc3nc(C)c(-c4ccccc4)n3Nc3ccccc3)n2)cc1      6290 nM
2  O=C(N/N=C/c1ccc([N+](=O)[O-])o1)c1ccc(O)cc1      2480 nM
3  COC(=O)c1cc(/C=C/c2ccc(S(N)(=O)=O)cc2)ccc1O  > 100000 nM
4  O=C(OCc1ccc2c(Cl)cc(Cl)c(O)c2n1)N1CCN(C(=O)c2cc3cc(F)ccc3[nH]2)CC1      1060 nM

Recorded GI50 of COc1ccc2c3c(Nc4ccc(/C(C)=N/O)cc4)[nH]c4ccccc4c-3c(N=O)c2c1 , please.
1260 nM

###

Test system: OVCAR-4 ovarian
Assay: NCI tumour cell line growth inhibition, 48 h
VALUE_TYPE: GI50

The examples below pair each entry with its known result.
>>> print(df.to_string())
                                   compound  value_type   result
0  CCN1C(=O)N(CC)C2Nn3c(s/c(=C4\C(=O)N(C)c5ccccc54)c3=O)=NC21 (stereo unspecified)        GI50  1.98 µM
1  C[C@H]1CCC/C=C/[C@@H]2C[C@H](O)C[C@H]2[C@H](O)[C@@H](SCC(O)CO)CC(=O)O1 (stereo partly specified)        GI50  4.17 µM
2  Cn1cc(-c2ccc(-c3cncc(Cl)c3N3CCC4(CCNC4=O)CC3)cc2)cn1        GI50  65.1 µM
3      O=C1CSC(c2ccc(-c3nc4ccccc4s3)cc2)=N1        GI50  41.1 µM
4  COc1ccc2c(Oc3ccc(NC(=O)c4c(C)n(CC(C)(C)O)n(-c5ccccc5)c4=O)nc3)ccnc2c1        GI50  10.7 µM

Consider the additional compound presented here.
Return reported GI50; argument: C[C@]12CC[C@@H]3c4ccc(O)c([N+](=O)[O-])c4CC[C@H]3[C@@H]1CC[C@@H]2NS(=O)(=O)c1cccc(Br)c1
1.47 µM

###

Tested on: 786-0 renal
Assay: NCI tumour cell line growth inhibition, 48 h; in the data active means GI50 below about 0.43 µM; inactive means the rest
Hello, when you answer, please use one of the following outcomes: active, inactive

Look over these answered cases.
>>> df
                                 smiles_str  qualitative_label
0        NC(=S)N/N=C/c1cc(-c2cccc(N)c2)ccn1           inactive
1  N.N.NCCCCCCCCCN.O=C([O-])CC(=O)[O-].O=C([O-])CC(=O)[O-].[Pt+4].[Pt+4]           inactive
2  Cn1c(=O)c2c(ncn2CC(=O)Nc2ccc(-c3ccccc3)nn2)n(C)c1=O           inactive
3  COC(=O)CCC1=C(CC(=O)OC)C(C)=N/C1=C\c1[nH]c(-c2ccc[nH]2)cc1OC           inactive
4   COc1ccc(/C=C(/c2ccccc2)[N+](=O)[O-])cc1           inactive

Record lookup: outcome of this test for Cn1cc(-c2ccc(-c3cncc(Cl)c3N3CCC4(CCNC4=O)CC3)cc2)cn1 ?
inactive

Test call, this compound: O=C(Nc1ccc(Cl)c(Cl)c1)Nc1ccccc1O
inactive

Would you mind telling me which call this test gave CCN(CC)c1cc2oc3cc(N)cc(=N)c-3nc2cc1C ?
inactive

Given O=C(NO)c1ccc(CN(c2cnccn2)c2cnccn2)cc1 , state the outcome it received in this test.
inactive

Write down the call the test reported for this compound. Item: CC[C@@]1(O)C(=O)OCc2c1cc1n(c2=O)Cc2c-1nc1cc(F)c(C)c3c1c2[C@@H](N)CC3
active

Can you look up the reported call for CO/N=C(/C)c1cccc(Nc2cc(-c3ccccc3)nc3ccc(OC)cc23)c1 for me?
inactive

// param item: O=C(OCc1ccc2c(Cl)cc(Cl)c(O)c2n1)N1CCN(C(=O)c2cc3cc(F)ccc3[nH]2)CC1 ; yields the recorded call
inactive

###

Recorded TGI, one value per entry.
Tested on: SF-539 CNS
Assay: NCI tumour cell line growth inhibition, 48 h

Some entries whose results are on file:
                                   compound  value_type    result
0  COC(=O)c1cc(C)ccc1CC(Cc1ccc(C)cc1)C(=O)OC (stereo not drawn)         TGI  > 100 µM
1  CC12CC1C(c1cccc([N+](=O)[O-])c1)(c1cccc([N+](=O)[O-])c1)N=N2 (stereo not drawn)         TGI   52.9 µM

As a next step, examine the compound that follows.
What value of measured TGI is listed for CC(O)CC(O)(C(F)(F)F)C(F)(F)F (stereo not drawn) ?
> 10 µM

###

Test system: SN12C renal
Assay: NCI tumour cell line growth inhibition, 48 h; in the data active means GI50 below about 0.43 µM; inactive means the rest
One label from this list, please: active, inactive

// param item: C[C@H]1CCC/C=C/[C@@H]2C[C@H](O)C[C@H]2[C@H](O)[C@@H](SCC(O)CO)CC(=O)O1 (some centres not stated) ; yields the recorded call
inactive

Recorded call for Cn1c(=O)c2c(ncn2CC(=O)Nc2ccc(-c3ccccc3)nn2)n(C)c1=O ?
inactive

###

Known GI50 of a selection of molecules
Test system: A549 NSCLC
Assay: NCI tumour cell line growth inhibition, 48 h

# example entries with known answers
                                   molecule  value_type    result
0   O=C(CSC(c1ccccc1)c1ccccc1)N/N=C/c1ccco1        GI50   1.54 µM
1  COC(=O)c1cc(/C=C/c2ccc(S(N)(=O)=O)cc2)ccc1O        GI50   29.6 µM
2  CCN1C(=O)N(CC)C2Nn3c(s/c(=C4\C(=O)N(C)c5ccccc54)c3=O)=NC21 (stereo not given)        GI50   5.08 µM
3     C/C(=N\NC(=S)N1CC2CCC(CC2)C1)c1ccccn1        GI50  0.064 µM

Switching to the query record.
Which GI50 reading was recorded for the molecule O=C([CH-]C(=O)c1ccccc1)c1ccccc1.O=C([CH-]C(=O)c1ccccc1)c1ccccc1.[O]=[U+2]=[O] ?
3.17 µM

###

Listed here: items and their measured TGI.
Test system: NCI-H23 lung
Experiment: NCI tumour cell line growth inhibition, 48 h

Example results:
                                   compound  value_type    result
0  O=C(O)c1c2c(cc3c1CC1(Cc4ccccc4C1=O)C3)CCC2 (stereo unspecified)         TGI  > 100 µM
1            COC1=C(Br)C(=O)c2nc(C)ccc2C1=O         TGI     27 µM
2  CCCCN(CCCC)C(=C(C(Cl)=C(Cl)Cl)[N+](=O)[O-])N(CCCC)CCCC         TGI  > 100 µM
3  O=C(O)CSC(NC(=O)C(C(F)(F)F)C(F)(F)F)(C(F)(F)F)C(F)(F)F         TGI  > 100 µM
4  Cc1ccc(S(=O)(=O)NC(=O)NC2=NC(C)(C)N(c3ccc(Cl)c(Cl)c3)C(N)=N2)cc1         TGI  > 100 µM
5  COc1ccc(N=C2C(=S)N(c3ccc(OC)cc3)/C(=N/S(=O)(=O)c3ccccc3)N2c2ccccc2)cc1         TGI     29 µM
6  S=C1CC(c2ccccc2)Sc2ccc(Cl)cc2N1 (stereo unspecified)         TGI  > 100 µM
7  COP(=O)(OC)C12CCOCCN1c1ccccc1C2=O (stereo unspecified)         TGI  > 100 µM

Okay, now this compound:
NCI-H23 lung / TGI / COc1cc(C(=O)N2CCc3c([nH]c4c([N+](=O)[O-])c(OC)ccc34)C2C)cc(OC)c1OC (stereo unspecified) : value?
> 100 µM

###

Listed compounds paired with reported TGI
Test system: SF-295 CNS
Test: NCI tumour cell line growth inhibition, 48 h

// below: answered compounds
In [3]: df
Out[3]:
                                   compound  test_target  value_type    result
0  c1ccc(-c2cnc(-c3ccc(-c4ncc(-c5ccccc5)o4)cc3)o2)cc1   SF-295 CNS         TGI  > 100 µM
1  CC1C(=O)OC2CC[N+]3([O-])CC=C(COC(=O)C(C)(O)C1(C)O)C23 (centres undefined)   SF-295 CNS         TGI  > 100 µM
2  COC(=O)c1cc(/C=C/c2ccc(S(N)(=O)=O)cc2)ccc1O   SF-295 CNS         TGI  > 100 µM

Attention now shifts to the item below.
Tell me the measured TGI of N.N.NCCCCCCCCCN.O=C([O-])CC(=O)[O-].O=C([O-])CC(=O)[O-].[Pt+4].[Pt+4] , please.
> 100 µM
